The values you see were collected from paper PMC8399196.

Entries and their IC50 values follow.
System: NE-4C cells
Test: CCK-8 cell viability assay, NE-4C normal cells
Format: cell-based
Conditions: Neural stem cell; NE-4C mouse brain neural stem cells, CCK-8, 24 h, mean ± SEM, n = 3
Method: Human colorectal adenocarcinoma cells (HT-29, ATCC® HTB-38), adenocarcinomic human alveolar basal epithelial cells (A549, ATCC® CCL-185), and prostate cancer (PC-3, ATCC® CRL-1435) were cultured in the growth medium, containing Roswell Park Memorial Institute Medium (RPMI1640) WelGENE, Daegu, Korea supplemented with 10% (v/v) fetal bovine serum (FBS, Gibco, Grand Island, NY, USA) and 1% antibiotics-antimycotics (Gibco). […]
Write down the value, and be sure its unit follows.

Nc1ccc(-c2nc3ccccc3s2)cc1 [BTA, 2-(4-aminophenyl)-benzothiazole, reference compound] ... 60.9 µM
O=C(Nc1ccc(-c2nc3ccccc3s2)cc1)C1CNC(c2ccccn2)=N1 (stereo not shown) ... 22.4 µM
O=C(Nc1ccc(-c2nc3ccccc3s2)cc1)C(C/N=C/c1ccccc1O)/N=C/c1ccccc1O (stereo not shown) ... 28.2 µM

Next item in the queue.
stdin: Given the entry NCC(N)C(=O)Nc1ccc(-c2nc3ccccc3s2)cc1 (stereo not shown) , report its measured IC50.
stdout: 36.8 µM

----------
Recorded IC50 for the following compounds
test system: C6 cells; assay: CCK-8 cell viability assay, C6; assay type: cell-based, Rattus; conditions: C6 brain glioma cells, CCK-8, 24 h, mean ± SEM, n = 3
# unit: µM | format: bare number

O=C(Nc1ccc(-c2nc3ccccc3s2)cc1)C1C[NH2+][Pt-2]([Cl])([Cl])[NH2+]1 (stereo not shown) ... 93.3

Here is another compound to look at.
stdin: Request the reported IC50 associated with N.N.[Cl][Pt][Cl] [Cisplatin, cis-diamminedichloroplatinum-(II), reference compound]
stdout: 227

----------
test system: A549 cells; test: CCK-8 cell viability assay, A549; format: cell-based; details: A549 human lung cancer cells, CCK-8, 24 h, mean ± SEM, n = 3
pIC50: −log10 of the molar value.
Measure: pIC50

N.N.[Cl][Pt][Cl] [Cisplatin, cis-diamminedichloroplatinum-(II), reference compound] ... < 3.30

stdin: Recorded pIC50 of NCC(N)C(=O)Nc1ccc(-c2nc3ccccc3s2)cc1 (centres unmarked) , please.
stdout: 4.00

stdin: Record: O=C(Nc1ccc(-c2nc3ccccc3s2)cc1)C1C[N+]2=Cc3ccccc3[O][Pt-2]23[O]c2ccccc2C=[N+]13 (centres unmarked)
stdout: < 3.30

----------
tested on: MCF-7 cells; test: CCK-8 cell viability assay, MCF-7; format: cell-based; details: MCF-7 human breast cancer cells, CCK-8, 24 h, mean ± SEM, n = 3
Quick reference: IC50 of the listed items.
Please reply with the bare figure in µM and do not write the unit itself.

N.N.[Cl][Pt][Cl] [Cisplatin, cis-diamminedichloroplatinum-(II), reference compound] ... 204

Now for another entry.
stdin: Query: IC50; subject: O=C(Nc1ccc(-c2nc3ccccc3s2)cc1)C1C[NH2+][Pt-2]([Cl])([Cl])[NH2+]1 (stereo not shown) [Compound L1Pt]
stdout: 59

----------
system: PC-3 cells; assay: CCK-8 cell viability assay, PC-3; format: cell-based; settings: PC-3 human prostate cancer cells, CCK-8, 24 h, mean ± SEM, n = 3
# key: entry, value: pIC50
Answer as the number alone; pIC50 is minus log10 of concentration in mol/L.

Nc1ccc(-c2nc3ccccc3s2)cc1 [BTA, 2-(4-aminophenyl)-benzothiazole, reference compound] ... 3.74
O=C(Nc1ccc(-c2nc3ccccc3s2)cc1)C1CNC(c2ccccn2)=N1 (centres unmarked) [Compound L3] ... 3.89
NCC(N)C(=O)Nc1ccc(-c2nc3ccccc3s2)cc1 (centres unmarked) [Compound L1] ... 4.02
O=C(Nc1ccc(-c2nc3ccccc3s2)cc1)C(C/N=C/c1ccccc1O)/N=C/c1ccccc1O (centres unmarked) [Compound L2] ... 3.93

Below: the item to evaluate.
stdin: Which value of pIC50 has been reported for O=C(Nc1ccc(-c2nc3ccccc3s2)cc1)C1C[NH2+][Pt-2]([Cl])([Cl])[NH2+]1 (centres unmarked) [Compound L1Pt] in the records?
stdout: 4.25

----------
Test system: C6 cells
Experiment: CCK-8 cell viability assay, C6
Format: cell-based, Rattus
Details: Rattus norvegicus; C6 brain glioma cells, CCK-8, 24 h, mean ± SEM, n = 3
Experimental: Human colorectal adenocarcinoma cells (HT-29, ATCC® HTB-38), adenocarcinomic human alveolar basal epithelial cells (A549, ATCC® CCL-185), and prostate cancer (PC-3, ATCC® CRL-1435) were cultured in the growth medium, containing Roswell Park Memorial Institute Medium (RPMI1640) WelGENE, Daegu, Korea supplemented with 10% (v/v) fetal bovine serum (FBS, Gibco, Grand Island, NY, USA) and 1% antibiotics-antimycotics (Gibco). […]
Measure: IC50 (µM)
All answers are understood in µM, so give the number only.

In the examples that follow, each entry is paired with its recorded IC50.
O=C(Nc1ccc(-c2nc3ccccc3s2)cc1)C(C/N=C/c1ccccc1O)/N=C/c1ccccc1O (stereo not shown) ... 143
Nc1ccc(-c2nc3ccccc3s2)cc1 [BTA, 2-(4-aminophenyl)-benzothiazole, reference compound] ... 425
O=C(Nc1ccc(-c2nc3ccccc3s2)cc1)C1CNC(c2ccccn2)=N1 (stereo not shown) ... 142

stdin: // query IC50 value for entry NCC(N)C(=O)Nc1ccc(-c2nc3ccccc3s2)cc1 (stereo not shown)
stdout: 77.8

----------
system: Caki-2 cells; assay: CCK-8 cell viability assay, Caki-2; type: cell-based; conditions: Caki-2 human renal cancer cells, CCK-8, 24 h, mean ± SEM, n = 3
Listing of recorded IC50 by entry.
Give just the number in µM; leave the unit off.

Consider the reported IC50 for these molecules:
O=C(Nc1ccc(-c2nc3ccccc3s2)cc1)C(C/N=C/c1ccccc1O)/N=C/c1ccccc1O (centres unmarked) ... 159
NCC(N)C(=O)Nc1ccc(-c2nc3ccccc3s2)cc1 (centres unmarked) ... 75.6
O=C(Nc1ccc(-c2nc3ccccc3s2)cc1)C1C[NH2+][Pt-2]([Cl])([Cl])[NH2+]1 (centres unmarked) ... 106

Now take the following molecule into account.
stdin: Look up IC50: Nc1ccc(-c2nc3ccccc3s2)cc1 [BTA, 2-(4-aminophenyl)-benzothiazole, reference compound]
stdout: 463

----------
Some molecules, each annotated with its measured IC50.
system: A549 cells; assay: CCK-8 cell viability assay, A549; type: cell-based; conditions: A549 human lung cancer cells, CCK-8, 24 h, mean ± SEM, n = 3
Please state the figure in µM; there is no need to write the unit.

O=C(Nc1ccc(-c2nc3ccccc3s2)cc1)C1C[NH2+][Pt-2]([Cl])([Cl])[NH2+]1 (centres unmarked) ... 167

stdin: Request body: readout IC50, system A549 cells, query O=C(Nc1ccc(-c2nc3ccccc3s2)cc1)C(C/N=C/c1ccccc1O)/N=C/c1ccccc1O (centres unmarked) . Return the value.
stdout: 182

----------
tested on: PC-3 cells; experiment: CCK-8 cell viability assay, PC-3; format: cell-based; conditions: PC-3 human prostate cancer cells, CCK-8, 24 h, mean ± SEM, n = 3
Measure: IC50

O=C(Nc1ccc(-c2nc3ccccc3s2)cc1)C1CNC2=[N+]1[Pt-2]([Cl])([Cl])[n+]1ccccc12 (stereo not drawn) ... > 500 µM
N.N.[Cl][Pt][Cl] [Cisplatin, cis-diamminedichloroplatinum-(II), reference compound] ... > 500 µM

stdin: Returns the measured IC50 for the input compound. Input: O=C(Nc1ccc(-c2nc3ccccc3s2)cc1)C1C[N+]2=Cc3ccccc3[O][Pt-2]23[O]c2ccccc2C=[N+]13 (stereo not drawn)
stdout: > 500 µM

----------
tested on: A549 cells; experiment: CCK-8 cell viability assay, A549; assay type: cell-based; details: A549 human lung cancer cells, CCK-8, 24 h, mean ± SEM, n = 3
Measure: IC50

stdin: What is its IC50 for A549 cells? Entry: Nc1ccc(-c2nc3ccccc3s2)cc1 [BTA, 2-(4-aminophenyl)-benzothiazole, reference compound]
stdout: > 500 µM

stdin: Then O=C(Nc1ccc(-c2nc3ccccc3s2)cc1)C1CNC(c2ccccn2)=N1 (stereo not drawn) [Compound L3] ?
stdout: > 500 µM

stdin: Ok, now O=C(Nc1ccc(-c2nc3ccccc3s2)cc1)C1CNC2=[N+]1[Pt-2]([Cl])([Cl])[n+]1ccccc12 (stereo not drawn) [Compound L3Pt]
stdout: > 500 µM
